Target: NK2 receptor (Mesocricetus auratus, UniProt P51144)
Sequence (P51144 1-384): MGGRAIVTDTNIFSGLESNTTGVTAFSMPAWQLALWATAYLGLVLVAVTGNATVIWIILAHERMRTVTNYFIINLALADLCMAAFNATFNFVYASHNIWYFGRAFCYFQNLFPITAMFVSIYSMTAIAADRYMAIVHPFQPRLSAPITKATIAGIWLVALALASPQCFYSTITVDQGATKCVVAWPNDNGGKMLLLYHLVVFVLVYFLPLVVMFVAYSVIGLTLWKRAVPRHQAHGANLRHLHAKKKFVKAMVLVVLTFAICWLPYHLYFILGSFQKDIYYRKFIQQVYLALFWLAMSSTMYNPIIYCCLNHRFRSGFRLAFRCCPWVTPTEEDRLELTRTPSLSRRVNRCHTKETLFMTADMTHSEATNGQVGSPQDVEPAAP
Readings of pIC50 for the listed compounds
Value format note: pIC50 is -log10 of concentration (mol/L); just state the number.

[
  {
    "COMPOUND": "COc1cccc(COC(=O)NC(Cc2c[nH]c3ccccc23)C(=O)NC(C)(Cc2ccccc2)C(O)CCCO)c1OC (single isomer, unassigned) [Compound XX]",
    "pIC50": 6.44
  },
  {
    "COMPOUND": "COc1cccc(COC(=O)NC(Cc2c[nH]c3ccccc23)C(=O)NC(C)(Cc2ccccc2)C(O)CCCO)c1OC (single isomer, unassigned) [Compound XXI]",
    "pIC50": 6.48
  },
  {
    "COMPOUND": "COc1cccc(COC(=O)N[C@@H](Cc2c[nH]c3ccccc23)C(=O)N[C@@](C)(Cc2ccccc2)C(=O)OCCO)c1OC",
    "pIC50": 6.82
  }
]

Q: Which pIC50 value is on record for `COc1cccc(COC(=O)N[C@@H](Cc2c[nH]c3ccccc23)C(=O)N[C@@](C)(Cc2ccccc2)C(=O)CCCO)c1OC` ?
Result: 7.66
